# Assay Target: p38α (Homo sapiens, UniProt Q16539)
# Sequence (Q16539 whole entry): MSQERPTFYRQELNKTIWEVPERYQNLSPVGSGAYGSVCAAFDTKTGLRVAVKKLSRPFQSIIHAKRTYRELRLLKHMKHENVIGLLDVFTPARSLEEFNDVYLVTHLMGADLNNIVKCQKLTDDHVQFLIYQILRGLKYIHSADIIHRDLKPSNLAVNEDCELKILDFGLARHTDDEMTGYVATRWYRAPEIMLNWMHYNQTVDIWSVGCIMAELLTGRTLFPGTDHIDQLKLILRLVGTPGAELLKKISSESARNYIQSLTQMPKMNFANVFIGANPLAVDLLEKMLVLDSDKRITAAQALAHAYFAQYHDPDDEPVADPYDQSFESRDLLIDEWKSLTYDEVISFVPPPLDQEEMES
Quantity Measured: IC50

INSERT INTO results (given_smiles, quantity_measured, result_value) VALUES
  ('Cc1ccc(-n2nc(C(C)(C)C)cc2NC(=O)C[C@H]2CC[C@H](Oc3ccc4nnc(C(C)C)n4c3)CC2)cc1', 'IC50', '500 to 2000 nM'),
  ('Cc1ccc(-n2nc(C(C)(C)C)cc2NC(=O)N[C@H]2CC[C@H](Oc3ccc4nnc(-c5cccc(OCCN6CCOCC6)c5)n4c3)CC2)cc1', 'IC50', '10 to 100 nM'),
  ('Cc1ccc(-n2nc(C(C)(C)C)cc2NC(=O)Cc2ccc(Oc3ccc4nnc(C(C)C)n4c3)cc2)cc1', 'IC50', '< 10 nM');

====

Observed IC50 for p38α (Homo sapiens), reported per entry below.
Quantity Measured: IC50

INSERT INTO results (molecule, result_value) VALUES
  ('Cc1ccc(-n2nc(C(C)(C)C)cc2NC(=O)N[C@H]2CC[C@@H](Oc3ccc4nnc(-c5cccc(OCCN6CCOCC6)c5)n4c3)CC2)cc1', '100 to 500 nM'),
  ('Cc1ccc(-n2nc(C(C)(C)C)cc2NC(=O)c2cccc(Sc3ccc4nnc(C(C)C)n4c3)c2)cc1', '10 to 100 nM'),
  ('O=C(Nc1ccnc(N2CCOCC2)c1)c1cccc(Sc2ccc3nnc(-c4cccc(OCCN5CCOCC5)c4)n3c2)c1', '100 to 500 nM'),
  ('Cc1ccc(-n2nc(C(C)(C)C)cc2NC(=O)NC2CCC(Oc3ccc4nnc(-c5ccccn5)n4c3)CC2)cc1 (stereo not shown)', '10 to 100 nM'),
  ('Cc1ccc(-n2nc(C(C)(C)C)cc2NC(=O)N[C@H]2CC[C@H](Oc3ccc4nnc(C5CCCC5)n4c3)CC2)cc1', '< 10 nM'),
  ('Cc1ccc(-n2nc(C(C)(C)C)cc2NC(=O)C(C)c2ccc(Sc3ccc4nnc(C(C)C)n4c3)cc2)cc1 (stereo not shown)', '100 to 500 nM'),
  ('Cc1ccc(-n2nc(C(C)(C)C)cc2NC(=O)Nc2ccc(Sc3ccc4nnc(-c5cccc(OCCN6CCOCC6)c5)n4c3)nc2)cc1', '10 to 100 nM');
